Give GI50 for every item shown.
- Test system: ACHN
- protocolNotes: NCI tumour cell line growth inhibition, 48 h
Calls of active or inactive are those of the source. No stated cut-off is given here; in the data, active = GI50 up to about 1.1 µM and inactive = higher.

Example entries begin here.
- compound: "Cc1cc(S(N)(=O)=O)c(SCc2nc(N)nc(N(C)C)n2)cc1Cl"
  propertyName: "GI50"
  valueObserved: "> 10 µM (inactive)"
- compound: "CCCCc1ccc(Nc2nc3c(ncn3C3CC(O)C(CN=[N+]=[N-])O3)c(=O)[nH]2)cc1 (stereo unspecified)"
  propertyName: "GI50"
  valueObserved: "> 100 µM (inactive)"
- compound: "Cc1ccc(NC(=O)CCc2nc(N)nc(N)c2-c2ccccc2)cc1C"
  propertyName: "GI50"
  valueObserved: "> 100 µM (inactive)"
- compound: "Nc1nc(-c2ccco2)cc(-c2ccco2)n1"
  propertyName: "GI50"
  valueObserved: "> 100 µM (inactive)"
- compound: "CC(C)c1c2[nH]c3ccccc3c2c(C(C)C)c2[nH]c3ccccc3c12"
  propertyName: "GI50"
  valueObserved: "91.8 µM (inactive)"

Next item in the queue.
Input: Please report the recorded GI50 for CCOC1NC(=O)c2ccccc21 (stereo unspecified) .
Output: > 100 µM (inactive)
